- Tested on: Canis familiaris
- assay.protocol: Increase in heart rate in dog at 1 mg/kg, iv by cardiotachometer
- Type: functional, organism-based
- Design: dose 1 mg/kg
- condition: Canis lupus familiaris
The source made the active and inactive calls. The calls are words filed in the database; no cut-off is given here.
test.readout: Activity

CCCNC(C)Cc1ccc(OC)c(OC)c1.Cl (racemic): Active
COc1ccc(CC(C)N(C)C(C)C)cc1OC.Cl (racemic): Active
CCCCNC(C)Cc1ccc(OC)c(OC)c1.Cl (racemic): Active
Br.CCCN(CCC)C(C)Cc1ccc(O)c(O)c1 (racemic): Active
Br.CC(C)N(C)C(C)Cc1ccc(O)c(O)c1 (racemic): Active

Looking for the measured Activity of CCN(CC)C(C)Cc1ccc(OC)c(OC)c1.Cl (racemic) , can you help?
Active
